# test target: hCA IX (Homo sapiens)
pKi: −log10 of the molar value.
property measured: pKi

Task: Write down pKi measured for item Cc1cn(-c2cc(NC(=O)c3ccc(C)c(Nc4nccc(-c5cccnc5)n4)c3)cc(C(F)(F)F)c2)cn1 [Nilotinib]
Output: 7.12 to 7.38
